B1: CPEB3 Ribozyme (parent)
chain: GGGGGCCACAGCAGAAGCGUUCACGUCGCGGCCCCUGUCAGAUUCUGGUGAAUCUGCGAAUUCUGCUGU

# Variants of: B1
# measurement-notes: self-cleavage, relative activity (ratio to wild type); higher = more cleavage; co-transcriptional
Answer rule not met if self-cleavage is under 0.5, and rule met if it is 0.5 or more.

// below: answered variants
G25C G37A ... rule not met
A8C U44C ... rule met
G2A C34A ... rule not met
C6A A23C ... rule met

Lookup: Could you verify whether the entry C33U G37A shows self-cleavage of no less than 0.5?
Found: rule not met

Lookup: Could you verify whether the entry G31A U36G shows self-cleavage of no less than 0.5?
Found: rule not met

Lookup: Could you verify whether the entry C18A U44A shows self-cleavage of no less than 0.5?
Found: rule not met

Lookup: Could you verify whether the entry C6U U38C shows self-cleavage of no less than 0.5?
Found: rule met

Lookup: Could you verify whether the entry C7A C33G shows self-cleavage of no less than 0.5?
Found: rule not met

Lookup: Could you verify whether the entry U55C G58U shows self-cleavage of no less than 0.5?
Found: rule met
